- Assay remarks: Drug metabolism in Tris-HCl buffer assessed as amount of nitrite released at 100 uM and 37 degree C after 30 mins in presence of nitrate reductase and NADPH by Griess reagent based spectrophotometric analysis
- Format: physicochemical
- Experimental parameters: 0.5 h
Measurement type: Drug metabolism (µM)

Here is how some molecules turned out for Drug metabolism.
O=C(NCCCCN1CCC(Cc2ccccc2)CC1)c1ccc(CO[N+](=O)[O-])cc1; 13
O=C(NCCN1CCC(Cc2ccccc2)CC1)c1cccc(CO[N+](=O)[O-])c1; 13

(I) O=C(NC1CCN(Cc2ccccc2)CC1)c1ccc(CO[N+](=O)[O-])cc1
(II) O=C(Cc1cccc(CO[N+](=O)[O-])c1)NC1CCN(Cc2ccccc2)CC1
Among I and II , whose measured Drug metabolism is the smaller figure? // respond with label for picked entry
II
(II: 1.3 µM, I: 6.3 µM)

----------
- Assay target: Sigma non-opioid intracellular receptor 1 (Cavia porcellus, UniProt Q60492)
- Sequence (Q60492 whole entry): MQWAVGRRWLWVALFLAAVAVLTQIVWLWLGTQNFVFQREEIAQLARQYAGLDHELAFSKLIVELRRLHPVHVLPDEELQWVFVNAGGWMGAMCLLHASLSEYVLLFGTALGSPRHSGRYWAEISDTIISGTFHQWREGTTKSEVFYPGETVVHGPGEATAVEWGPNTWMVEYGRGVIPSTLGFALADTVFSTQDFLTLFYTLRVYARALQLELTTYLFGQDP
- Assay remarks: Displacement of [3H]-(+)-pentazocine from sigma1 receptor in guinea pig brain membranes incubated for 1 hr by liquid scintillation counting method
pKi: −log10 of the molar value.
Measurement type: pKi

Here is how some compounds turned out for pKi.
O=C(NC1CCN(Cc2ccccc2)CC1)c1ccc(CO[N+](=O)[O-])cc1; 7.66
Cc1ccc(C(=O)NCCCCN2CCC(Cc3ccccc3)CC2)cc1; 7.21
O=C(NCCCCN1CCC(Cc2ccccc2)CC1)c1ccc(CO)cc1; 6.15
O=C(NCCCN1CCC(Cc2ccccc2)CC1)c1cccc(CO[N+](=O)[O-])c1; 7.19
O=C(NCCN1CCC(Cc2ccccc2)CC1)c1ccc(CO[N+](=O)[O-])cc1; 7.05
O=C(NCCCCCN1CCC(Cc2ccccc2)CC1)c1cccc(CO[N+](=O)[O-])c1; 7.30

(A) O=C(NCCN1CCC(Cc2ccccc2)CC1)c1cccc(CO[N+](=O)[O-])c1
(B) O=C(NCCCCN1CCC(Cc2ccccc2)CC1)c1ccc(CO[N+](=O)[O-])cc1
Which of the two gives a bigger number for pKi: A or B ? // respond with label for picked entry
A
(A: 7.31, B: 6.60)

----------
- Assay target: Sigma non-opioid intracellular receptor 1 (Cavia porcellus)
- Assay remarks: Displacement of [3H]-(+)-pentazocine from sigma1 receptor in guinea pig brain membranes incubated for 1 hr by liquid scintillation counting method
pKi: −log10 of the molar value.
Measurement type: pKi

Here is how some molecules turned out for pKi.
O=C(NCCCN1CCC(Cc2ccccc2)CC1)c1ccc(CO[N+](=O)[O-])cc1; 6.84
O=C(Cc1ccc(CO[N+](=O)[O-])cc1)NC1CCN(Cc2ccccc2)CC1; 6.77
O=C(Cc1cccc(CO[N+](=O)[O-])c1)NC1CCN(Cc2ccccc2)CC1; 7.72
O=C(NC1CCN(Cc2ccccc2)CC1)c1cccc(CO[N+](=O)[O-])c1; 7.62

(a) O=C(NCCCCN1CCC(Cc2ccccc2)CC1)c1cccc(CO[N+](=O)[O-])c1
(b) O=C(NCCCCCN1CCC(Cc2ccccc2)CC1)c1ccc(CO[N+](=O)[O-])cc1
Among a and b , whose measured pKi is the smaller figure? // respond with label for picked entry
a

----------
- Assay target: Sigma intracellular receptor 2 (Homo sapiens, UniProt Q5BJF2)
- Sequence (Q5BJF2 whole entry): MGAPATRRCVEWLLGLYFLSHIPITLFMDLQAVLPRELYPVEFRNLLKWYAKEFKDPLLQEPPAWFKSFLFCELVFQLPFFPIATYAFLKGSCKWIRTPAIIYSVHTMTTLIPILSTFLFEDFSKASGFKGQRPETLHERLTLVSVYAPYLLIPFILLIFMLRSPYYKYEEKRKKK
- Assay remarks: Displacement of [3H]-di-o-tolylguanidine from sigma2 receptor (unknown origin) incubated for 1 hr in presence of (+)SKF10047 by liquid scintillation counting method
Measurement type: Ki (nM)

Cc1ccc(C(=O)NCCCCN2CCC(Cc3ccccc3)CC2)cc1; 127
O=C(NCCCN1CCC(Cc2ccccc2)CC1)c1ccc(CO[N+](=O)[O-])cc1; 230
O=C(NCCCCN1CCC(Cc2ccccc2)CC1)c1cccc(CO[N+](=O)[O-])c1; 75
O=C(NCCCCN1CCC(Cc2ccccc2)CC1)c1ccc(CO)cc1; 2600
O=C(NCCCCCN1CCC(Cc2ccccc2)CC1)c1ccc(CO[N+](=O)[O-])cc1; 70
O=C(NC1CCN(Cc2ccccc2)CC1)c1cccc(CO[N+](=O)[O-])c1; 19
O=C(Cc1cccc(CO[N+](=O)[O-])c1)NC1CCN(Cc2ccccc2)CC1; 320
O=C(NCCCCN1CCC(Cc2ccccc2)CC1)c1ccc(CO[N+](=O)[O-])cc1; 89

(a) O=C(NCCN1CCC(Cc2ccccc2)CC1)c1cccc(CO[N+](=O)[O-])c1
(b) O=C(NCCCN1CCC(Cc2ccccc2)CC1)c1cccc(CO[N+](=O)[O-])c1
Among a and b , whose measured Ki is the smaller figure? // respond with label for picked entry
b
(b: 93 nM, a: 330 nM)
